- System: MCF-7 breast cancer cells
- Assay Info: MTT cell toxicity assay in MCF-7 breast cancer cells
- Type: cell-based
- Protocol Conditions: MCF-7 cells, MTT, final 0.5% FBS, two days with compound; concentration of total growth inhibition (cytostatic)
Where a SMILES comes first, the peptide text is derived from it. The star is where a group is joined. Palmitoyl = CCCCCCCCCCCCCCCC(=O)*
What TGI was measured for each of the following?
One number for each entry, in µM.

[[record]]
compound = "CCCCCCCCCCCCCCCC(=O)N[C@@H](CC(N)=O)C(=O)N[C@@H](CO)C(=O)N[C@@H](CCCNC(=N)N)C(=O)N[C@@H](CC(C)C)C(=O)NCC(=O)N[C@@H](CC(N)=O)C(=O)NCC(=O)N[C@H](C(=O)N[C@@H](CC(C)C)C(=O)N[C@@H](Cc1ccc(O)cc1)C(N)=O)C(C)C [Peptide 17, Pal-NSRLGNGVLY-NH2] (Palmitoyl-NSRLGNGVLY-NH2)"
endpoint_result = 1.5


The record that follows has no TGI shown yet.
So what TGI did CCCCCCCCCCCCCCCC(=O)N[C@@H](CCCNC(=N)N)C(=O)N[C@@H](CC(N)=O)C(=O)N[C@@H](CC(N)=O)C(=O)N[C@@H](CO)C(=O)N[C@@H](CCCNC(=N)N)C(=O)N[C@@H](CC(C)C)C(=O)NCC(=O)N[C@@H](CC(N)=O)C(=O)NCC(=O)N[C@H](C(=O)N[C@@H](CC(C)C)C(=O)N[C@@H](Cc1ccc(O)cc1)C(=O)N[C@@H](C)C(=O)N[C@@H](CO)C(=O)N[C@H](C(N)=O)C(C)C)C(C)C [Peptide 35, Pal-RNNSRLGNGVLYASV-NH2] (Palmitoyl-RNNSRLGNGVLYASV-NH2) get with MCF-7 breast cancer cells?
2.5
